assay: in vivo; conditions: monkey, in vivo, sc
Observation type: half-life

Prompt: Using the record for Cc1cccc(C)c1OCC(=O)N[C@@H](Cc1ccccc1)[C@@H](O)C[C@H](Cc1ccccc1)NC(=O)[C@H](C(C)C)N1CCCNC1=O , report its half-life.
Completion: 10.4 to 14.6 days

----------
assay: Plasma pharmacokinetics after single subcutaneous dose in non-human primates (DcNP or free drug combination); settings: monkey, plasma, sc
Observation type: half-life

Prompt: Using the record for C[C@@H]1CCO[C@H]2Cn3cc(C(=O)NCc4ccc(F)cc4F)c(=O)c(O)c3C(=O)N12 [Dolutegravir] , report its half-life.
Completion: > 16.7 days

Prompt: Using the record for CC(C)c1nc(CN(C)C(=O)N[C@H](C(=O)N[C@@H](Cc2ccccc2)C[C@H](O)[C@H](Cc2ccccc2)NC(=O)OCc2cncs2)C(C)C)cs1 [Ritonavir] , report its half-life.
Completion: 10.4 to 14.6 days
